- assay_target: HiBit-BRM fusion protein (Homo sapiens, UniProt P51531)
- Construct: expressed in transfected cells
- Sequence (P51531 whole entry, the tested form may be a part): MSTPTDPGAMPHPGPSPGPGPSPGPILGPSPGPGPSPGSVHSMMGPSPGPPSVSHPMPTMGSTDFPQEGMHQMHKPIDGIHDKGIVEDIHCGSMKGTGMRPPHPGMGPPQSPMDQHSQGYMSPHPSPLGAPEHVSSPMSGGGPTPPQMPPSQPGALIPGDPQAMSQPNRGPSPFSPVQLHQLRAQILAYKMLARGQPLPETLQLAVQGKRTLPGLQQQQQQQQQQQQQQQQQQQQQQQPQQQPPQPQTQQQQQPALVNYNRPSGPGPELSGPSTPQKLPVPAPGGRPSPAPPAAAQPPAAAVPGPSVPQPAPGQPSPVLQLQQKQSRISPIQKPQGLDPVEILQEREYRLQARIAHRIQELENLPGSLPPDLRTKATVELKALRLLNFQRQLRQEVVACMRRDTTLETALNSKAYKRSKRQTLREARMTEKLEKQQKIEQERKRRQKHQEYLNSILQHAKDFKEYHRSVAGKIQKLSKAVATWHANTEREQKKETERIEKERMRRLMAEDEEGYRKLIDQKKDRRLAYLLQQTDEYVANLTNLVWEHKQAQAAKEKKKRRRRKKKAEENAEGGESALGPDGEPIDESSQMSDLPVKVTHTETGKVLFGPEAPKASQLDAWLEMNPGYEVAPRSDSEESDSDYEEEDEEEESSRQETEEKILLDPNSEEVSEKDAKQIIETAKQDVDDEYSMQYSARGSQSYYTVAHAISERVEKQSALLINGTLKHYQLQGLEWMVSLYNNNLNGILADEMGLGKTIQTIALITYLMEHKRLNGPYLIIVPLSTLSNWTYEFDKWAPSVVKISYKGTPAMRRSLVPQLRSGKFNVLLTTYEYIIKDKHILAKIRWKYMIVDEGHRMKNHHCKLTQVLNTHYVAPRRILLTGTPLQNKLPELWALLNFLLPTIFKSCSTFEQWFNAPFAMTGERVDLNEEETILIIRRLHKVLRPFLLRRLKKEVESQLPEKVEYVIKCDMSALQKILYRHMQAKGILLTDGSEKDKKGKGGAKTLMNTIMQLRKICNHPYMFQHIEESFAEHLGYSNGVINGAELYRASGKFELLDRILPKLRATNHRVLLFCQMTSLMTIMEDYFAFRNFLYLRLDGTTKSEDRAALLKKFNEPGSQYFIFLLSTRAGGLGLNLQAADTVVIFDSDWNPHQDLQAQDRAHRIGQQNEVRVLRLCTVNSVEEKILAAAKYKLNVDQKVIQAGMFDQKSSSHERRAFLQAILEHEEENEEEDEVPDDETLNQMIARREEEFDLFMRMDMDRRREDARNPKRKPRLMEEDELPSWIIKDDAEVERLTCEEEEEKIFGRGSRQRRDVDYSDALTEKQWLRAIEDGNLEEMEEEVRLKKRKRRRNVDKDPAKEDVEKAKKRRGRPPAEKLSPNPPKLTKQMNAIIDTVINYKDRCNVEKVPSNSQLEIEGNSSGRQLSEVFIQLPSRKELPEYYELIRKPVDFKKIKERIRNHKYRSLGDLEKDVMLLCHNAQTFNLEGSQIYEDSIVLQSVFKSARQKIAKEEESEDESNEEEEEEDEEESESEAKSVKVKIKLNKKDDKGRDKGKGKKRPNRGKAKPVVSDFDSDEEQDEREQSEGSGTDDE
- assay_remarks: HiBiT-BRM cell-based degradation assay (Nano-Glo HiBiT Lytic Detection, 24 h)
- condition_label: stable HeLa cell line expressing HiBiT-BRM, read-out: BRM HiBit Degradation IC50
Attribute: DC50

smiles_text=Cc1ncsc1-c1ccc([C@H](C)NC(=O)[C@@H]2C[C@@H](O)CN2C(=O)[C@@H](c2cc(-c3ccc(N4CC(c5sc6nnc(-c7ccccc7O)cc6c5C)C4)nn3)no2)C(C)C)cc1 assay_target="HiBit-BRM fusion protein (Homo sapiens, UniProt P51531)" recorded_metric=DC50 observed_result="> 10 nM"
smiles_text=Cc1ncsc1-c1ccc([C@H](C)NC(=O)[C@@H]2C[C@@H](O)CN2C(=O)[C@@H](c2cc(-c3cnc(N4CCC(c5sc6nnc(-c7cccc(Cl)c7O)cc6c5C)CC4)nc3)no2)C(C)C)cc1 assay_target="HiBit-BRM fusion protein (Homo sapiens, UniProt P51531)" recorded_metric=DC50 observed_result="> 1000 nM"
smiles_text=Cc1cc(-c2cc([C@H](C(=O)N3C[C@H](O)C[C@H]3C(=O)N[C@@H](C)c3ccc(-c4scnc4C)cc3)C(C)C)on2)cnc1N1CCC(c2sc3nnc(-c4ccccc4O)cc3c2C)CC1 assay_target="HiBit-BRM fusion protein (Homo sapiens, UniProt P51531)" recorded_metric=DC50 observed_result="< 10 nM"

What does the record list as DC50 for Cc1ncsc1-c1ccc([C@H](C)NC(=O)[C@@H]2C[C@@H](O)CN2C(=O)[C@@H](c2cc(N3CC4(CC(c5cc6nnc(-c7ccccc7O)cc6s5)C4)C3)no2)C(C)C)cc1 ? < 10 nM

What does the record list as DC50 for Cc1ncsc1-c1ccc([C@H](C)NC(=O)[C@@H]2C[C@@H](O)CN2C(=O)[C@@H](c2cc(-c3ncc(N4CCC(c5sc6nnc(-c7ccccc7O)cc6c5C)CC4)cn3)no2)C(C)C)cc1 ? > 10 nM

What does the record list as DC50 for Cc1cc(N2CC[C@H](c3sc4nnc(-c5ccccc5O)cc4c3C)C2)ncc1-c1cc([C@H](C(=O)N2C[C@H](O)C[C@H]2C(=O)N[C@@H](C)c2ccc(-c3scnc3C)cc2)C(C)C)on1 ? > 10 nM

What does the record list as DC50 for Cc1ncsc1-c1ccc([C@H](C)NC(=O)[C@@H]2C[C@@H](O)CN2C(=O)[C@@H](c2cc(-c3cnc(N4CCN(c5sc6nnc(-c7ccccc7O)cc6c5C)CC4)nc3)no2)C(C)C)cc1 ? < 10 nM

What does the record list as DC50 for Cc1ncsc1-c1ccc([C@H](C)NC(=O)[C@@H]2C[C@@H](O)CN2C(=O)[C@@H](c2cc(-c3cnc(N4CCC(c5cc6nnc(-c7ccccc7O)cc6s5)CC4)nc3)no2)C(C)C)cc1 ? < 10 nM

What does the record list as DC50 for Cc1ncsc1-c1ccc([C@H](C)NC(=O)[C@@H]2C[C@@H](O)CN2C(=O)[C@@H](c2cc(-c3ccnc(N4CC[C@@H](c5sc6nnc(-c7ccccc7O)cc6c5C)C4)n3)no2)C(C)C)cc1 ? > 1000 nM
